- Test system: CFU-GM lineage
- ASSAY REMARKS: Bone marrow toxicity, CFU-GM
- Format: cell-based, human
- EXPERIMENTAL CONTEXT: human, Cytotoxicity IC50, bone marrow CFU-GM, three separate donors
pIC50: −log10 of the molar value.
MEASURED ATTRIBUTE: pIC50

[in] Suppose we examine the molecule `O=c1ccn([C@@H]2O[C@H](CO)[C@@H](O)[C@]2(F)Br)c(=O)[nH]1` ; what pIC50 value has been reported?
[out] < 4.00

[in] Repeat with CC(C)OC(=O)[C@H](C)NP(=O)(OC[C@H]1O[C@@H](n2ccc(=O)[nH]c2=O)[C@](F)(Br)[C@H]1O)Oc1ccccc1 (mixture of isomers)
[out] < 4.00

[in] Repeat with `CC(C)OC(=O)[C@H](C)N[P@@](=O)(OC[C@H]1O[C@@H](n2ccc(=O)[nH]c2=O)[C@@](F)(Br)[C@@H]1O)Oc1ccccc1`
[out] < 4.00

###

Known half-life of a selection of compounds
- ASSAY REMARKS: in vitro
- EXPERIMENTAL CONTEXT: human, microsomes
Output spec: scalar in min, unitless text.

COMPOUND | half-life / min
CC(C)OC(=O)[C@H](C)N[P@](=O)(OC[C@H]1O[C@@H](n2ccc(=O)[nH]c2=O)[C@@](F)(Br)[C@@H]1O)Oc1ccccc1 [Compound 28] | 19.7

[in] Suppose we examine the compound CC(C)OC(=O)[C@H](C)N[P@@](=O)(OC[C@H]1O[C@@H](n2ccc(=O)[nH]c2=O)[C@@](F)(Br)[C@@H]1O)Oc1ccccc1 [Compound 27] ; what half-life value has been reported?
[out] 18.4

###

- ASSAY REMARKS: In vitro nephrotoxicity in HK-2 cells, 3 day assay
- EXPERIMENTAL CONTEXT: human
MEASURED ATTRIBUTE: IC50 at 3 days

[in] Suppose we examine the compound CC(C)OC(=O)[C@H](C)N[P@](=O)(OC[C@H]1O[C@@H](n2ccc(=O)[nH]c2=O)[C@](C)(F)[C@@H]1O)Oc1ccccc1 [SOF, sofosbuvir, reference compound] ; what IC50 at 3 days value has been reported?
[out] > 300 µM

###

- System: HepG2 cells
- EXPERIMENTAL CONTEXT: 50 μM, HepG2, 14 day
MEASURED ATTRIBUTE: MtDNA content % of control (range)

In the examples that follow, each entry is paired with its recorded MtDNA content % of control (range).
COMPOUND | MtDNA content % of control (range)
CC(C)OC(=O)[C@H](C)NP(=O)(OC[C@H]1O[C@@H](n2ccc(=O)[nH]c2=O)[C@](F)(Br)[C@H]1O)Oc1ccccc1 (mixture of isomers) | 100 (99–104) % of control
O=c1ccn([C@@H]2O[C@H](CO)[C@@H](O)[C@]2(F)Br)c(=O)[nH]1 | 72 (63–83) % of control
CC(C)OC(=O)[C@H](C)N[P@](=O)(OC[C@H]1O[C@@H](n2ccc(=O)[nH]c2=O)[C@@](F)(Br)[C@@H]1O)Oc1ccccc1 | 150 (150–150) % of control
CC(C)OC(=O)[C@H](C)N[P@@](=O)(OC[C@H]1O[C@@H](n2ccc(=O)[nH]c2=O)[C@@](F)(Br)[C@@H]1O)Oc1ccccc1 | 65 (65–65) % of control

[in] Suppose we examine the compound CC(C)OC(=O)[C@H](C)N[P@](=O)(OC[C@H]1O[C@@H](n2ccc(=O)[nH]c2=O)[C@](C)(F)[C@@H]1O)Oc1ccccc1 [SOF, sofosbuvir, reference compound] ; what MtDNA content % of control (range) value has been reported?
[out] 130 (120–150) % of control

###

- ASSAY REMARKS: Stability in human intestinal microsomes
MEASURED ATTRIBUTE: half-life (h)
Output spec: scalar in h, unitless text.

[in] Suppose we examine the compound CC(C)OC(=O)[C@H](C)N[P@@](=O)(OC[C@H]1O[C@@H](n2ccc(=O)[nH]c2=O)[C@@](F)(Br)[C@@H]1O)Oc1ccccc1 [Compound 27] ; what half-life value has been reported?
[out] 2.2

###

- System: HCV GT1b-WT replicon
- ASSAY REMARKS: GT1b stably transfected replicon in Huh-7 cells
- Type: cell-based
- EXPERIMENTAL CONTEXT: Hepatitis C virus, Huh-7, read-out: EC50 GT1b-WT
MEASURED ATTRIBUTE: EC50 (nM)
Output spec: scalar in nM, unitless text.

COMPOUND | MEASURED ATTRIBUTE | RESULT UNIT | RECORDED VALUE
CC(C)OC(=O)[C@H](C)N[P@](=O)(OC[C@H]1O[C@@H](n2ccc(=O)[nH]c2=O)[C@](C)(F)[C@@H]1O)Oc1ccccc1 [SOF, sofosbuvir, reference compound] | EC50 | nM | 34

[in] Record lookup: for HCV GT1b-WT replicon, what EC50 belongs to `CC(C)OC(=O)[C@H](C)N[P@@](=O)(OC[C@H]1O[C@@H](n2ccc(=O)[nH]c2=O)[C@@](F)(Br)[C@@H]1O)Oc1ccccc1` ?
[out] 92
